# reported EC50; entries follow
- test target: human CAR ligand-binding domain (LBD) (Homo sapiens, UniProt Q14994)
- Sequence (Q14994 103-348 isoform Q14994-2 limits assumed, other chains not shown): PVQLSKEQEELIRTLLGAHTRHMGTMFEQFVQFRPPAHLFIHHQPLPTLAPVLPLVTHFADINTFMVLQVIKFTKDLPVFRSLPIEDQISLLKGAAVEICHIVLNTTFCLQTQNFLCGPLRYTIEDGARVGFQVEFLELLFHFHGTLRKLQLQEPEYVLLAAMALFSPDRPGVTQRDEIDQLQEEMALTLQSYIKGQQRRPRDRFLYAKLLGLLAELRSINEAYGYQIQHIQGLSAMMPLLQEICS
- experiment: TR-FRET CAR Coactivator Binding Assay (LanthaScreen)
reported property: EC50 (nM)

smiles_code=NC(=O)c1cc(Cn2cc(-c3c(-c4ccc(Cl)cc4)nc4cc(F)ccn34)nn2)ccc1Cl value_units=nM relation_qualifier== test_value=71
smiles_code=CNC(=S)c1cc(Cc2nnc(-c3c(-c4ccc(Cl)cc4)nc4ccccn34)o2)ccc1Cl value_units=nM relation_qualifier== test_value=160
smiles_code=NC(=O)c1cc(Cn2cc(-c3c(-c4ccc(Cl)cc4)nc4c(F)cccn34)nn2)ccc1Cl value_units=nM relation_qualifier== test_value=110
smiles_code=CNC(=O)c1cc(Cc2nnc(-c3c(-c4ccc(Cl)cc4)nc4ccccn34)o2)ccc1Cl value_units=nM relation_qualifier== test_value=400
smiles_code=CN(C)C(=O)c1cc(Cc2nnc(-c3c(-c4ccc(Cl)cc4)nc4ccccn34)s2)ccc1Cl value_units=nM relation_qualifier=< test_value=20
